Attribute: GI50
- System: DU-145
- Test method notes: NCI tumour cell line growth inhibition, 48 h
Active and inactive are the calls of the source. Cut-off read from the data, not from the text of the source: active = GI50 up to about 1.1 µM and inactive = higher.

O=C1CSC(c2ccccc2)N1c1ccc(-c2ccc(-n3c(-c4ccccc4)nc4ccccc4c3=O)cc2)cc1 (stereo not given) : 85.1 µM (inactive)
C(=C/c1nnnn1-c1ccccc1)/Nc1ccccc1 : 24.7 µM (inactive)
COc1ccc(C=O)cc1Oc1ccc(C[C@H]2c3c(cc(OC)c4c3Oc3cc5c(cc3O4)CCN(C)C5=O)CCN2C)cc1 : 12.1 µM (inactive)
C[C@H](CSC(=O)c1ccccc1)C(=O)N1c2ccccc2C[C@H]1C(=O)O : > 100 µM (inactive)
CCN(CC)C1=Nc2ccccc2-n2c(C)cnc2C1 : > 100 µM (inactive)

Q) Recorded GI50 for CC(O)CNC(=O)Nc1c(C(F)(F)F)cc(-c2ccccc2)[nH]c1=O (stereo not given) , please?
A) > 100 µM (inactive)

Q) One more compound: CN1[C@@H]2CCCC[C@H]2N(C)P1(=O)C(O)/C=C/c1ccccc1 (stereo not given in full)
A) > 100 µM (inactive)

Q) Note, next up: `CCOP(=O)(OCC)/C(F)=C/c1ccc(F)cc1`
A) > 100 µM (inactive)

Q) Same thing, different compound: `COc1cccc(/C=N/NC(=O)CSCC(=O)N/N=C/c2cccc(OC)c2OC)c1OC`
A) > 100 µM (inactive)

Q) Next record, please: N#Cc1cc2c(n(C3OC(CO)C(O)C(O)C3O)c1=S)CCCCCC2 (stereo not given)
A) > 100 µM (inactive)

----------
- Test system: TK-10
- Test method notes: NCI tumour cell line growth inhibition, 48 h
The source made the active and inactive calls. No stated cut-off is given here; in the data, active = GI50 up to about 1.1 µM and inactive = higher.
Quantity name: GI50

Q) Quick one: GI50 for CCCCCCCCCCCCCC(=O)CSCCNC(=O)CCNC(=O)[C@@H](O)C(C)(C)COP(=O)(O)OP(=O)(O)OCC1OC(n2cnc3c(N)ncnc32)C(O)C1OP(=O)(O)O (some centres undefined) ?
A) 68.2 µM (inactive)

----------
- Test system: SK-MEL-2
- Test method notes: NCI tumour cell line growth inhibition, 48 h
Activity calls are given as the source filed them. Rule as the data show it: active = GI50 up to about 1.1 µM and inactive = higher.
Classes to choose from: y = active, n = inactive

O=C(Nc1ccc(C2=NCCN2)cc1)c1cncc(C(=O)Nc2ccc(C3=NCCN3)cc2)c1 : n
Clc1ccc(-c2cc3nc4ccccc4nc3o2)cc1 : n
COc1ccc2c3c(c(=O)n(C)c2c1OC)C=CC(C)(C)O3 : n
c1c[nH]c(Cc2nc(Cc3c[nH]cn3)c[nH]2)n1 : n
COc1cc2c3c(c1O)C1(C=CC(=O)C=C1)CC3N(C)CC2 (stereo not given) [GLAZIOVINE] : n
Cc1ccc(S(=O)(=O)NC(=O)NC(Cc2ccccc2)C(=O)O)cc1 (stereo not given) : n

Q) Name the outcome recorded for `CC(=O)Oc1ccc2ccc(=O)oc2c1OC(C)=O` in the assay.
A) n

Q) Likewise for `COc1ccccc1NC(=O)O/N=C(/Cl)C(C)C` ?
A) n

Q) Same question for `CCN(CC)CCCNc1ccc([N+](=O)[O-])c2nc3ccccc3c(N)c12` please.
A) n

Q) And for `c1cnc(N2CCN(Cc3c[nH]c4ccccc34)CC2)nc1` ?
A) n

Q) Can you check CCCCC(C(=O)CCC(=O)Nc1ccc(Cl)cc1)C(=O)C(C)C (stereo not given) next?
A) n

Q) # iterate: CN(CCC(=O)N1CC(CCl)c2ccc([N+](=O)[O-])cc21)CCC(=O)N1CC(CCl)c2ccc([N+](=O)[O-])cc21 (stereo not given)
A) n

Q) Proceed to O=C(Nc1nc2ccc([N+](=O)[O-])cc2s1)C(=O)C(C1OC(=O)c2ccccc21)[N+](=O)[O-] (stereo not given)
A) n

Q) Consider next the molecule O=C1NC(Cc2ccccc2)C(=O)N2CCCC12 (stereo not given) in the same way.
A) n

Q) Repeat with C[C@@H](CC(=O)OCc1ccccc1)OC1OC(COC(=O)C(C)(C)C)C(OC(=O)C(C)(C)C)C(OC(=O)C(C)(C)C)C1OC(=O)C(C)(C)C (stereo not given in full)
A) n

Q) Do the same for `c1ccc(CN2COc3c(ccc4c5c(ccc34)CN(Cc3ccccc3)CO5)C2)cc1` please
A) n

Q) Record: COc1ccc(C2C3=C(COC3=O)Oc3cc4c(cc32)OCO4)cc1OC (stereo not given)
A) y

Q) Subsequent entry: `Cc1nnc2sc(N/N=C/c3ccccc3)nn12`
A) n

Q) # repeat for `CC1(C)CC(=O)c2c(nc3ccc4ccccc4c3c2-c2ccc(NC(=O)CCC(=O)Nc3ccc(-c4c5c(nc6ccc7ccccc7c46)CC(C)(C)CC5=O)cc3)cc2)C1`
A) n

Q) Next molecule up: `O=C(CNS(=O)(=O)Cc1ccccc1)NNc1ccccc1`
A) n

----------
Documented GI50 across a set of compounds
- System: SF-295
- Test method notes: NCI tumour cell line growth inhibition, 48 h
Activity calls are given as the source filed them. No stated cut-off is given here; in the data, active = GI50 up to about 1.1 µM and inactive = higher.

Below are worked cases with known answers.
COC(=O)C(=O)C1(CCC(C)=O)c2ccccc2-c2ccccc21 : > 100 µM (inactive)
CCOC(=O)c1cc(C)nc2c1c(=O)n(-c1ccccc1)c(=O)n2CCCCN1CCN(c2ncccn2)CC1 : > 100 µM (inactive)
CC(=O)Oc1ccn2nc(C)c(Br)c2c1 : > 100 µM (inactive)

Q) Dear colleague, I am looking for the recorded GI50 of the following compound: `Fc1ccc2c3c([nH]c2c1)CCNC3`
A) 67.8 µM (inactive)

Q) Next record, please: Cc1ccc(OC2CC(n3cnc4ncnc(Cl)c43)OC2Oc2ccc(C)cc2)cc1 (centres undefined)
A) 21.1 µM (inactive)

Q) What do you have for `CCCCCCCCC[C@@H]1C[C@H](O)[C@H](Cc2ccccc2)N1C(=O)OC(C)(C)C` ?
A) 15.8 µM (inactive)

Q) For `C/C(=N\NC(=S)NCc1ccccc1)c1nc2cccnc2[nH]1` then?
A) 6.41 µM (inactive)

Q) Param item: CC1(C)CNC(=O)C2(/C=N/C(C)(C)CNC(=O)C3(/C=N/1)CCCO3)CCCO2 (centres undefined)
A) > 10 µM (inactive)

Q) Okay, and `Oc1ccc(/N=N/c2ccc(Cl)cc2)cc1` ?
A) 16.4 µM (inactive)

Q) # iterate: `C(=C/c1nnnn1-c1ccccc1)/Nc1ccccc1`
A) 26.2 µM (inactive)

Q) Try the compound `N#CC(C#N)=C1NN=C(Cl)c2ccccc21`
A) > 100 µM (inactive)

Q) Same again, this time with CCC(=O)N1C(=O)OCC1C(C)C (centres undefined)
A) > 100 µM (inactive)

Q) What do you get for `Cc1cc2c(=O)cc(-c3ccc(C(=O)O)cc3)oc2c(C(N)=O)c1C` ?
A) > 100 µM (inactive)

Q) And what about the compound `CCOP(=O)(OCC)/C(F)=C/c1ccc(F)cc1` ?
A) > 100 µM (inactive)

Q) Another compound: COCC(O)CN1C(N)=NC(O)C1O (centres undefined)
A) > 100 µM (inactive)

Q) `CC(=O)N(CCN1C(=O)c2ccccc2C1=O)CCN1C(=O)c2ccccc2C1=O` ?
A) > 100 µM (inactive)

----------
- System: HOP-62
- Test method notes: NCI tumour cell line growth inhibition, 48 h
Calls of active or inactive are those of the source. Rule as the data show it: active = GI50 up to about 1.1 µM and inactive = higher.
Field 'call' accepts active, inactive

These recorded examples may help you get a feel for the data.
CCCC(=O)OC[n+]1ccc2c(C)c3[nH]c4ccc(OC)cc4c3c(C)c2c1 : active
CC[C@@H](O)C[C@H]1CCC[C@@]2(C[C@@H]3OC(=O)/C=C/[C@@](C)(O)[C@@H](O)[C@H](C)[C@@H](O)[C@H](OC4CCC(N(C)C)C(C)O4)[C@@H](O)[C@](C)(O)CCCCC/C=C/[C@@H]4CC(C)(C)O[C@@]4(O)C[C@H](O2)[C@H]3C)O1 (stereo not given in full) : inactive
Cc1cccc2nc3cccc(C(=O)NCCC[N+](C)(CCCNC(=O)c4cccc5nc6cccc(C)c6nc45)Cc4ccc([N+](=O)[O-])n4C)c3nc12 : active
N#CC(/C(=N\NC(N)=S)C(=O)NC1C2CC3CC(C2)CC1C3)c1ccc(Cl)cc1 (stereo not given) : inactive
Cc1cc2c(=O)cc(-c3ccc(C(=O)O)cc3)oc2c(C(N)=O)c1C : inactive

Q) What is the recorded call for this compound in the test? `CC(=O)/C(C)=N/NC(=O)c1ccccc1O`
A) inactive

Q) Next record, please: CC(C)(C)c1cc(C(C)(C)C)c(SC2OC(CO)C(O)C(O)C2O)c(O)c1O (stereo not given)
A) inactive

Q) # repeat for `O=C(O)/C=C/c1c[nH]cn1`
A) inactive

Q) Now the same for `CC(C)(C)OC(=O)NCCCCCCC(=O)Cc1ccccc1`
A) inactive

Q) Input `COc1ccc2oc(-c3cc4cc(OC)ccc4o3)cc2c1`
A) inactive

Q) Please do the same for O=c1n(CCCCn2c(=O)n(CC3CS3)c3ccccc32)c2ccccc2n1CC1CS1 (stereo not given) as well.
A) inactive

Q) Check CC(C)(C)C1CCP(=O)(c2ccccc2)CC1 (stereo not given) too.
A) inactive

Q) What would you report for CC1(C)COC(C2(C)C(=O)C=C(c3ccccc3)c3ccccc32)=N1 (stereo not given) ?
A) inactive

Q) Subsequent entry: `COc1ccc2c(c1)c(=O)c1c(NCCNCCO)ccc3c(=O)n(CCN(C)C)c(=O)n2c31`
A) active

Q) Now try O/N=C(\c1nc2ccc(Cl)cc2nc1O)C(O)c1ccc(Cl)cc1Cl (stereo not given) .
A) inactive

Q) Moving on to the next compound: CCN(CC)C1C(=O)NC1C#Cc1ccccc1 (stereo not given)
A) inactive

Q) // same read-out, input: `CCCCC/C(=N\c1[nH]cnc1C(N)=O)OCC`
A) inactive

Q) Would you kindly repeat that for `c1cnc(N2CCN(Cc3c[nH]c4ccccc34)CC2)nc1` ?
A) inactive

Q) Follow-up entry: `CN1CCN(c2ncc3c(n2)sc2c(=O)n(-c4ccccc4)cnc23)CC1`
A) inactive

Q) Same again, this time with CC1CC(Nc2ccc(Br)cc2)N(C(=O)c2ccc(Br)cc2)O1 (stereo not given)
A) inactive
